Reference source: ChEMBL document CHEMBL4699545

# System: Huh-7
# assayNotes: Cytotoxicity against human Huh-7 cells assessed as reduction in cell viability by measuring viability index at 50 uM after 72 hrs in presence of resazurin by resazurin reduction method
# Assay type: cell-based
# details: huh-7, 72 h
endpointLabel: Growth_index
Output spec: single numeric token, no unit.

Short answer for "COc1cc2ncnc(NCc3cn(CC4CCN(Cc5ccccc5)CC4)nn3)c2cc1OC" : Growth_index was 0.65

Notebook: "Cc1cc(=O)oc2cc(OCc3cn(CC4CCN(Cc5ccccc5)CC4)nn3)ccc12" , Growth_index read as 0.61

The molecule listed as "COc1cc2ncnc(NCc3cn(CCNc4ccnc5cc(Cl)ccc45)nn3)c2cc1OC" has a reported Growth_index of 0

Field Growth_index (entry "O=C1c2ccccc2C(=O)N1Cc1cn(CCNc2ccnc3cc(Cl)ccc23)nn1" ) reads 0.85

Growth_index measured on "Clc1ccc2c(NCCn3cc(CNc4ncnc5ccccc45)nn3)ccnc2c1" = 0
